- Experimental system: full length human BTLA expressed in a Jurkat T cell line (human, UniProt Q7Z6A9 31-289)
- Assay name: cell-based or functional assay
Measurement label: T cell reporter (NFkB signaling), % inhibition (%)
Reply numerically in %, unit not repeated.

{"columns": ["Binder", "Measured number"],
 "data": [
  ["8C4 (antibody, IgG1, V domains shown) VH: DVQLQESGPGMVKPSQSLSLTCTVTGYSITSGYDWHWIRHFPGNKLEWMGYISYSGSTNYNPSLKSRISITHDTSKNHFFLKLNSVTTEDTATYYCARGTPVVAEDYFDYWGQGTTLTVSS VL: QAVVTQESALSTSPGETVTLTCRSSTGAVTTSNYANWVQEKPDHLFTGLIGATNNRAPGVPARFSGSLIGDKAALTITGAQTEDEAIYFCALWYSNHLVFGGGTKLTVLG", 21],
  ["8B4 (antibody, IgG1, V domains shown) VH: QVQLQQSGAELARPGASVKLPCKASGYTFTSYGISWVKQRTGQGLEWIGEIYPRSGTTYYNEKFKGKATLTADKSSSTAYMELRSLTSEDSAVYFCARRISSGSGVDYWGQGTTLTVSS VL: DIQMTQTTSSLSASLGDRVTISCSASQGISNYLNWYQQKPDGTVKLLIYYTSSLHSGVPSRFSGSGSGTDYSLTISNLEPEDIATYYCQQYSELPWTFGGGTKLEIK", 24]
]}

Problem: Consider the binder shown here: 15B6 (antibody, IgG1, V domains shown) VH: QVQLQQPGAELVKPGASVKLSCKASGYTFTSYWMHWVKQRPGQGLEWIGMIHPNSGSTNYNEKFKSKATLTVDKSSSTAYMQLSSLTSEDSAVYYCARKRGGLGDYWGQGTSVTVSS VL: DIVLTQSPASLAVSLGQRATISCRASKSVSTSGYSYMHWYQQKPGQPPKLLIYLASNLESGVPARFSGSGSGTDFTLNIHPVEEEDAATYYCQHSRELPYTFGGGTKLEIK What is its recorded T cell reporter (NFkB signaling), % inhibition?
Result: 21
